Would you kindly list folding stability dG unfold for each of these sequences?
Experimental Details: folding stability dG unfold (combined trypsin and chymotrypsin); higher = more stable
One number for each entry, in kJ/mol.

>  <Biopolymer Sequence>
SAGGMKPGESSTVPPVVERTTSPDSLGNPRYTVTRVTEITVTYFPDSINVTVTTETTVVSTATPGLLSAGGS [r8_70_JUSTAS]

>  <Recorded Endpoint>
folding stability dG unfold

>  <Experimental Result>
7.43

$$$$
>  <Biopolymer Sequence>
SAGGSAGGSYWFSITFKINFWVIDGNRIHPVPIEITILIKIPPIPPDEMKPEPTPDGEPKYDFSAGGSAGGS [r12_1031_TrROS]

>  <Recorded Endpoint>
folding stability dG unfold

>  <Experimental Result>
18

$$$$
>  <Biopolymer Sequence>
SAGGPRVEVEEVELEGDYLVVRARVEVPLDDGTYEFELTLVLPVPPPPLPLPPVDPRFPRAPDDDLVSAGGS [r8_234_TrMRF]

>  <Recorded Endpoint>
folding stability dG unfold

>  <Experimental Result>
4.06

$$$$
>  <Biopolymer Sequence>
SAGGSAGGSAGEEKEYRIVVPFDSDDPEAFVRAVFDGIPPDVPIKAIDFNPELGYGVVVASAGGSAGGSAGG [r11_698_TrMRF]

>  <Recorded Endpoint>
folding stability dG unfold

>  <Experimental Result>
3.73

$$$$

Hi there! I need folding stability dG unfold for each item below, if you can.
1. SAGGSAGGSAGGLTFRLPDGTRVRVRVELNEDGELRITVEVEPLPPPPPKVEFYSEEELKSAGGSAGGSAGG [r7_660_TrROS_Hall]
2. SAGGSAGGSAGGSKPNNFKNIPKPVFKFKITTTEWKKNKDGTWTPVSTSTAEVTVWSNTSAGGSAGGSAGGS [r4_288_TrMRF]
3. SAGGSAGGSAVRTIFIPGGNIKDIIELIKSDPGQPVQIHAPDGWVIKITGDKDIDIHPFPDSAGGSAGGSAG [r3_269_TrROS]

-- reply
12.2
16.2
0.904
